molecular target: protein farnesyltransferase (Rattus norvegicus, UniProt Q02293+Q04631); construct: Rat brain protein farnesyltransferase activity is measured; from tissue; host or cells: rat brain; purified according to Reiss et al., Cell 62:81-88 (1990), steps one through three; assay: in vitro inhibition of protein farnesyltransferase (scintillation proximity assay, biotin-K Ras B fragment); type: biochemical; conditions: at 1 × 10^-8 M; read-out: % inhibition of farnesyltransferase
# Lookup of reported inhibition at 0.01 µM keyed by entry

See these solved cases before continuing.
[
  {
    "smiles_data": "CSCC[C@H](NC(=O)c1ccc(CN(Cc2cncs2)C2CCSCC2)cc1-c1ccccc1C)C(=O)O",
    "result": "69%"
  },
  {
    "smiles_data": "CCCCS(=O)(=O)N(Cc1ccc(C(=O)N[C@@H](CCSC)C(=O)O)c(-c2ccccc2C)c1)CC1CCCCC1",
    "result": "80%"
  },
  {
    "smiles_data": "CSCC[C@H](NC(=O)c1ccc(CN(CCC2CCCCC2)C2CC2)cc1-c1ccccc1C)C(=O)O",
    "result": "95%"
  }
]

For "CSCC[C@H](NC(=O)c1ccc(CN(C)C(CC2CCCCC2)CC2CCCCC2)cc1-c1ccccc1C)C(=O)O" , what is its reported inhibition at 0.01 µM?
79%

====

biological target: protein farnesyltransferase (Rattus norvegicus, UniProt Q02293+Q04631); construct: Rat brain protein farnesyltransferase activity is measured; from tissue; host or cells: rat brain; purified according to Reiss et al., Cell 62:81-88 (1990), steps one through three; assay: in vitro inhibition of protein farnesyltransferase (scintillation proximity assay, biotin-K Ras B fragment); format: biochemical; settings: at 1 × 10^-7 M
# Lookup of reported % inhibition of farnesyltransferase keyed by entry
# unit: % | format: bare number

See these solved cases before continuing.
[
  {
    "compound": "CSCC[C@H](NC(=O)c1ccc(/C=C/c2ccc(Oc3ccccc3Cl)cc2)cc1-c1ccccc1C)C(=O)O [Example 854]",
    "measured_endpoint": "% inhibition of farnesyltransferase",
    "numeric_result": 78
  },
  {
    "compound": "CCSCC(CC1CCCCC1)N(Cc1ccc(C(=O)N[C@@H](CCSC)C(=O)O)c(-c2ccccc2C)c1)CC(C)C (some centres unmarked) [Example 945]",
    "measured_endpoint": "% inhibition of farnesyltransferase",
    "numeric_result": 80
  },
  {
    "compound": "CSCC[C@H](NC(=O)c1ccc(COCc2ccc(C)cc2)cc1-c1ccccc1C)C(=O)[O-].[Li+] [Example 579]",
    "measured_endpoint": "% inhibition of farnesyltransferase",
    "numeric_result": 92
  },
  {
    "compound": "CSCC[C@H](NC(=O)c1ccc(CCc2ccccc2Oc2ccccc2)cc1-c1ccccc1C)C(=O)[O-].[Li+] [Example 455]",
    "measured_endpoint": "% inhibition of farnesyltransferase",
    "numeric_result": 83
  },
  {
    "compound": "CSCC[C@H](NC(=O)c1ccc(CCc2ccc(Oc3cccc(Cl)c3)cc2)cc1-c1ccccc1C)C(=O)O [Example 859]",
    "measured_endpoint": "% inhibition of farnesyltransferase",
    "numeric_result": 86
  },
  {
    "compound": "CSCC[C@H](NC(=O)c1ccc(COCCc2ccc(-c3ccc(Cl)cc3)o2)cc1-c1ccccc1C)C(=O)[O-].[Li+] [Example 536]",
    "measured_endpoint": "% inhibition of farnesyltransferase",
    "numeric_result": 79
  },
  {
    "compound": "CSCC[C@H](NC(=O)c1ccc(COCCC2CCCCC2)cc1-c1ccccc1C)C(=O)[O-].[Li+] [Example 594]",
    "measured_endpoint": "% inhibition of farnesyltransferase",
    "numeric_result": 95
  },
  {
    "compound": "CSCC[C@H](NC(=O)c1ccc(CCc2ccccc2Cc2ccccc2)cc1-c1ccccc1C)C(=O)O [Example 458]",
    "measured_endpoint": "% inhibition of farnesyltransferase",
    "numeric_result": 87
  },
  {
    "compound": "CSCC[C@H](NC(=O)c1ccc(CCc2ccc(Oc3ccccc3N)cc2)cc1-c1ccccc1C)C(=O)O [Example 857]",
    "measured_endpoint": "% inhibition of farnesyltransferase",
    "numeric_result": 92
  },
  {
    "compound": "CSCC[C@H](NC(=O)c1ccc(COCCc2ccco2)cc1-c1ccccc1C)C(=O)[O-].[Li+] [Example 531]",
    "measured_endpoint": "% inhibition of farnesyltransferase",
    "numeric_result": 74
  }
]

For CSCC[C@H](NC(=O)c1ccc(/C=C/c2ccc(Oc3cccc([N+](=O)[O-])c3)cc2)cc1-c1ccccc1C)C(=O)O [Example 861] , what is its reported % inhibition of farnesyltransferase?
65

====

molecular target: protein farnesyltransferase (Rattus norvegicus, UniProt Q02293+Q04631); construct: Rat brain protein farnesyltransferase activity is measured; from tissue; host or cells: rat brain; purified according to Reiss et al., Cell 62:81-88 (1990), steps one through three; experiment: in vitro inhibition of protein farnesyltransferase (scintillation proximity assay, biotin-K Ras B fragment); format: biochemical; conditions: at 1 × 10^-6 M
# Lookup of reported % inhibition of farnesyltransferase keyed by entry
# unit: % | format: bare number

See these solved cases before continuing.
[
  {
    "compound": "CSCC[C@H](NC(=O)c1ccc(C=CCc2ccccc2)cc1-c1ccccc1C)C(=O)O",
    "readout_units": "%",
    "% inhibition of farnesyltransferase": 92
  },
  {
    "compound": "COc1ccc(CCOCc2ccc(C(=O)N[C@@H](CCSC)C(=O)O)c(-c3ccccc3C)c2)cc1",
    "readout_units": "%",
    "% inhibition of farnesyltransferase": 95
  },
  {
    "compound": "Cc1ccccc1-c1cc(COCc2ccccc2)ccc1C(=O)N[C@@H](CCS(C)(=O)=O)C(=O)O",
    "readout_units": "%",
    "% inhibition of farnesyltransferase": 88
  }
]

For CSCCC(NC(=O)c1ccc(CNC(CO)c2ccccc2)cc1-c1ccccc1)C(=O)O (stereo not shown) [Example 657] , what is its reported % inhibition of farnesyltransferase?
32

Another compound to check: "CSCC[C@H](NC(=O)c1ccc(CN(C2CC2)C2(CC3CCCCC3)CC2)cc1-c1ccccc1C)C(=O)O"
98

Another compound to check: "CSCC[C@H](NC(=O)c1ccc(COC2(Cc3ccccc3)CCN(C(=O)OC(C)(C)C)CC2)cc1-c1ccccc1C)C(=O)[O-].[Li+]"
78

Another compound to check: "CSCC[C@H](NC(=O)c1ccc(/C=C/c2cccc3ccccc23)cc1-c1ccccc1C)C(=O)O"
93

====

biological target: protein farnesyltransferase (Rattus norvegicus, UniProt Q02293+Q04631); construct: Rat brain protein farnesyltransferase activity is measured; from tissue; host or cells: rat brain; purified according to Reiss et al., Cell 62:81-88 (1990), steps one through three; experiment: in vitro inhibition of protein farnesyltransferase (scintillation proximity assay, biotin-K Ras B fragment); type: biochemical; conditions: at 1 × 10^-8 M; read-out: % inhibition of farnesyltransferase
Counter-ions that a name gives are not always drawn.
Rule: inhibition at 0.01 µM of 80% or more gives Criterion met; anything lower gives Criterion not met.

Examples from the recorded data:
[
  {
    "compound": "CSCC[C@H](NC(=O)c1ccc(CN(Cc2cncs2)S(=O)(=O)c2ccc(C)cc2)cc1-c1ccccc1C)C(=O)O",
    "group": "Criterion not met"
  },
  {
    "compound": "CSCC[C@H](NC(=O)c1ccc(CN(CCC2CCCCC2)C(=O)c2ccccc2)cc1-c1ccccc1C)C(=O)O [Example 762, lithium salt]",
    "group": "Criterion met"
  },
  {
    "compound": "CSCC[C@H](NC(=O)c1ccc(CN[C@@H](CC2CCCCC2)C(=O)N2CCCCC2)cc1-c1ccccc1C)C(=O)O [Example 887, lithium salt]",
    "group": "Criterion met"
  },
  {
    "compound": "CSCC[C@H](NC(=O)c1ccc(CN(c2ccccc2)S(=O)(=O)c2ccc(C(F)(F)F)cc2)cc1-c1ccccc1C)C(=O)O [Example 780, lithium salt]",
    "group": "Criterion not met"
  },
  {
    "compound": "CSCC[C@H](NC(=O)c1ccc(CN(Cc2ccc3c(c2)OCO3)c2cncnc2)cc1-c1ccccc1C)C(=O)O [Example 837, lithium salt]",
    "group": "Criterion met"
  },
  {
    "compound": "CCCCS(=O)(=O)N(CCC1CCCCC1)Cc1ccc(C(=O)N[C@@H](CCSC)C(=O)O)c(-c2ccccc2C)c1",
    "group": "Criterion met"
  },
  {
    "compound": "CCSC[C@H](CC1CCCCC1)N(C=O)Cc1ccc(C(=O)N[C@@H](CCSC)C(=O)O)c(-c2ccccc2C)c1",
    "group": "Criterion not met"
  },
  {
    "compound": "COc1ccc(N(Cc2ccccc2)Cc2ccc(C(=O)N[C@@H](CCSC)C(=O)O)c(-c3ccccc3C)c2)cc1 [Example 840, lithium salt]",
    "group": "Criterion not met"
  }
]

Does CSCC[C@H](NC(=O)c1ccc(CN(Cc2ccccc2)c2cccc(Cl)c2)cc1-c1ccccc1C)C(=O)O [Example 847, lithium salt] have a reported inhibition at 0.01 µM of at least 80%?
Criterion met

Another compound to check: "CCCCS(=O)(=O)N(CCCc1ccccc1)Cc1ccc(C(=O)N[C@@H](CCSC)C(=O)O)c(-c2ccccc2C)c1"
Criterion not met

Another compound to check: CSCC[C@H](NC(=O)c1ccc(CN[C@H](CSc2ccccc2C)CC2CCCCC2)cc1-c1ccccc1C)C(=O)O [Example 767, lithium salt]
Criterion met
